System: MDA-MB-435
Use one of these outcomes when replying: 1.0 (active), 0.0 (inactive)

What call does the record list for COc1ccc(Nc2c3ccccc3nc3occc23)cc1 ?
1.0

What call does the record list for C=C1C(=O)O[C@H]2[C@H]1CC/C(COC(=O)C(=O)c1cn(Cc3ccccc3)c3ccccc13)=C\CC[C@@]1(C)O[C@@H]21 ?
0.0

What call does the record list for CC(C)(C)c1cc(C(C)(C)C)cc(S(=O)(=O)Nc2cc3ccccc3cc2C(=O)NCCN)c1 ?
0.0

What call does the record list for COc1cc2c(c(OC)c1OC)-c1ccc(OC)c(=O)cc1[C@@H](NC(=O)c1ccccc1)CC2 ?
1.0

====

System: DU-145 prostate
Assay: NCI tumour cell line growth inhibition, 48 h
METRIC_NAME: TGI

What value of TGI has been reported for the following molecule? COc1ccc(C(=C(Cl)c2ccccc2)c2ccc(OC)cc2)cc1
> 100 µM

What value of TGI has been reported for the following molecule? COC(C(O)CO)C(O)C(O)C(=O)NNc1ccccc1 (stereo not given)
> 100 µM

What value of TGI has been reported for the following molecule? Cn1cc(NC(=O)c2cc(NC(=O)CN=C(N)N)cn2C)cc1C(=O)NCCC(=N)N
> 100 µM

What value of TGI has been reported for the following molecule? CCN(CC)C(=O)Cn1c(C)cc2ccccc21
> 100 µM

What value of TGI has been reported for the following molecule? Cc1ccc(C(=O)CN(/C=C/C(=O)C(F)(F)F)c2ccc(S(N)(=O)=O)cc2)cc1
> 100 µM

What value of TGI has been reported for the following molecule? O=C1/C(=C/c2ccc([N+](=O)[O-])cc2)C(=O)N(c2ccccc2)C1c1ccccc1 (stereo not given)
> 10 µM

What value of TGI has been reported for the following molecule? OCC(O)COCn1nncc1Cn1ncc2c(SCc3ccccc3)ncnc21 (stereo not given)
> 100 µM

What value of TGI has been reported for the following molecule? Nc1nc(N)c2ncn(-c3ccc(Cl)cc3)c2n1
> 100 µM

What value of TGI has been reported for the following molecule? CC1OC(OC2C(O[C@H]3CC[C@@]4(C)C(=CC[C@H]5[C@@H]6C[C@@H]7O[C@]8(CC[C@@H](CO)CO8)[C@@H](C)[C@@H]7[C@@]6(C)CC[C@@H]54)C3)OC(CO)C(O)C2OC2OC(CO)C(O)C(O)C2O)C(O)C(O)C1O (stereo not given in full)
3.34 µM

What value of TGI has been reported for the following molecule? Oc1ccccc1C(Sc1nc2ccccc2s1)Sc1nc2ccccc2s1
> 100 µM

What value of TGI has been reported for the following molecule? Cc1cc(S(=O)(=O)Nc2nnc(-c3ccccc3)c(-c3ccccc3)n2)c(SCC(N)=O)cc1Cl
> 100 µM

What value of TGI has been reported for the following molecule? NC(Cc1ccccc1)C(=O)N[C@H]1c2ccsc2/C(=N/O)[C@H]1O (stereo not given in full)
> 100 µM

What value of TGI has been reported for the following molecule? O=C1CSC(c2cccc(Oc3ccccc3)c2)N1c1ccc(Cl)cc1 (stereo not given)
> 100 µM

What value of TGI has been reported for the following molecule? O=C1C=CC[C@H]2O[C@@H](COC(=O)Cc3ccccc3)C[C@H]2O1
> 100 µM

What value of TGI has been reported for the following molecule? COc1ccc(Cn2cc3c(c2-c2ccccc2)CC(C)(C)c2cnoc2-3)cc1
7.5 µM

What value of TGI has been reported for the following molecule? COc1cc(CNCc2cc(OC)c(OC)c(OC)c2)cc(OC)c1OC
> 10 µM

What value of TGI has been reported for the following molecule? CCOc1cn(C2CC(O)C(CO)O2)c(=O)[nH]c1=O (stereo not given)
> 100 µM

What value of TGI has been reported for the following molecule? Cc1ccc(/C=C2\CCCc3ccccc3C2=O)cc1
> 100 µM

What value of TGI has been reported for the following molecule? CSc1ccc2c(cc1=O)[C@@H](NC(=O)c1ccc(N)cc1)CCc1cc(O)c(O)c(O)c1-2
> 100 µM

What value of TGI has been reported for the following molecule? CN1C(=O)c2cccc3cc([N+](=O)[O-])cc(c23)C1=O
> 10 µM
